- study system: Recombinant ROCK1 (amino acids 1-477) (Homo sapiens, UniProt Q13464)
- Construct: Recombinant ROCK1 (amino acids 1-477); by word order, ROCK1 from Carna Biosciences
- Sequence (Q13464 1-477): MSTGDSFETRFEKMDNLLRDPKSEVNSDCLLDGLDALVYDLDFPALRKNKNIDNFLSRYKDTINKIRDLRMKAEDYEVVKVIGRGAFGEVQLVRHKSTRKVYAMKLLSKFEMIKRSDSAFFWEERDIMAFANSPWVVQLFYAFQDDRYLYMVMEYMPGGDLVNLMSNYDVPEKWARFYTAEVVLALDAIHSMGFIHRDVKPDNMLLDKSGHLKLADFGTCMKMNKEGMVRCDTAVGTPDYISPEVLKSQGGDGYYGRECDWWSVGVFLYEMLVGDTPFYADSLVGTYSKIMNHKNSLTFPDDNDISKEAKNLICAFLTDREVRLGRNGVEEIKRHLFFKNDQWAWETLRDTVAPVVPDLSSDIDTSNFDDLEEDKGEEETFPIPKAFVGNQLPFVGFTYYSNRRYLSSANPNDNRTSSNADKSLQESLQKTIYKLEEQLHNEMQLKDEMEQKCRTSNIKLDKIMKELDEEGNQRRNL
- experimental protocol: ROCK inhibition assay, LANCE Ultra TR-FRET kinase assay (ROCK1)
- assay conditions: 1 μM ATP, 50 nM ULight-CREBtide substrate
pIC50: −log10 of the molar value.
recorded endpoint: pIC50

## Task Assign pIC50 to the following record: Cc1nocc1-c1ccc2c(=O)n(C(CO)c3cccc(Cl)c3)cnc2c1 (stereo not shown)
## Result 6.30 to 7.00

## Task Name the recorded pIC50 of the item O=C(NCC1CCOCC1)c1cc(F)cc(Cn2ccc3cc(-c4c[nH]nc4C(F)F)ccc3c2=O)c1 in your answer.
## Result 7.00 to 7.96

## Task Note down pIC50 recorded for CNC(=O)c1cc(F)cc(Cn2ccc3cc(-c4cn[nH]c4C)ncc3c2=O)c1
## Result 7.00 to 7.96

## Task Hello, please tell me recorded pIC50 for this one: NS(=O)(=O)c1ccc(NC(=O)c2cccc(Cn3ccc4cc(-c5c[nH]nc5C(F)(F)F)ccc4c3=O)c2)cc1
## Result 6.30 to 7.00

----------
- study system: Recombinant ROCK1 (amino acids 1-477) (Homo sapiens, UniProt Q13464)
- Construct: Recombinant ROCK1 (amino acids 1-477); by word order, ROCK1 from Carna Biosciences
- experimental protocol: ROCK inhibition assay, LANCE Ultra TR-FRET kinase assay (ROCK1)
- assay conditions: 1 μM ATP, 50 nM ULight-CREBtide substrate
pIC50: −log10 of the molar value.
Give measured pIC50 for each item. Keep answers brief.

## Task Supply recorded pIC50 for COc1cccc(Cn2ccc3cc(-c4c[nH]nc4Cl)ccc3c2=O)c1 here.
## Result 7.00 to 7.96

## Task Name the recorded pIC50 of the compound listed here: Nc1cc(-c2ccc3c(=O)n(C(CO)c4cccc(Cl)c4)cnc3c2)ccn1 (centres unmarked)
## Result 6.30 to 7.00

## Task Quickly give me recorded pIC50 for CN1CCC(NC(=O)c2cccc(Cn3ccc4cc(-c5c[nH]nc5C(F)(F)F)ccc4c3=O)c2)CC1
## Result > 8.00

## Task Give the reported pIC50 for this compound. Cc1nocc1-c1ccc2c(=O)n(Cc3cc(F)cc(C(=O)NCC4CCN(C(C)C)CC4)c3)ccc2c1
## Result 6.30 to 7.00

## Task State, in one line, measured pIC50 of CNC(=O)c1cc(F)cc(Cn2ccc3cc(-c4conc4C)ccc3c2=O)c1
## Result 7.00 to 7.96

## Task Identify measured pIC50 corresponding to COCCNC(=O)c1cccc(Cn2ccc3cc(-c4ccnn4C)ccc3c2=O)c1
## Result 6.30 to 7.00

## Task Give me measured pIC50, please, for this compound: O=C(NCc1ccnc(F)c1)c1cccc(Cn2cnc3cc(-c4cn[nH]c4C(F)F)ccc3c2=O)c1
## Result 7.00 to 7.96

## Task Find the measured pIC50 of COc1cccc([C@@H](CO)N2CNc3cc(-c4cn[nH]c4Cl)ccc3C2=O)c1 and report it.
## Result < 6.30

----------
- study system: Recombinant ROCK2 (amino acids 5-554) (Homo sapiens)
- Construct: ROCK2 (amino acids 5-554); by word order, ROCK2 from SignalChem
- experimental protocol: ROCK inhibition assay, LANCE Ultra TR-FRET kinase assay (ROCK2)
- assay conditions: 4 μM ATP, 50 nM ULight-CREBtide substrate
Please provide measured IC50 for the entries that follow.

## Task Retrieve IC50 measured for CNC(=O)c1cc(Cl)cc(Cn2ccc3cc(-c4cn[nH]c4C(F)(F)F)ccc3c2=O)c1 and print it.
## Result 10 to 100 nM

## Task Provide measured IC50 value, entry: CNC(=O)c1cccc(Cn2ccc3cc(-c4ccoc4C)ccc3c2=O)c1
## Result > 500 nM

## Task Give reported IC50 value for CNC(=O)c1cccc(Cn2cc(CCO)c3cc(-c4conc4C)ccc3c2=O)c1
## Result 10 to 100 nM

## Task Identify IC50 associated with the compound Cn1nccc1-c1ccc2c(=O)n(Cc3cccc(C(=O)NCC(F)(F)F)c3)ccc2c1
## Result 10 to 100 nM

## Task For the compound CC(c1cccc(O)c1)n1ccc2cc(-c3c[nH]nc3C(F)(F)F)ccc2c1=O (centres unmarked) , give its measured IC50 value.
## Result 10 to 100 nM

## Task Name the recorded IC50 of the compound listed here: CNC(=O)c1cc(F)cc(Cn2ccc3cc(-c4cn[nH]c4C(F)(F)F)ccc3c2=O)c1
## Result < 10 nM

## Task Entry [2H]C([2H])([2H])NC(=O)c1cccc(Cn2cnc3cc(-c4conc4C)ccc3c2=O)c1 needs its IC50 filled in; supply it.
## Result < 10 nM

## Task Supply reported IC50 belonging to this compound: CC(C)NC(=O)c1cc(F)cc(Cn2ccc3cc(-c4c[nH]nc4Br)ncc3c2=O)c1
## Result < 10 nM

----------
- study system: Recombinant ROCK2 (amino acids 5-554) (Homo sapiens, UniProt O75116)
- Construct: ROCK2 (amino acids 5-554); by word order, ROCK2 from SignalChem
- Sequence (O75116 5-554): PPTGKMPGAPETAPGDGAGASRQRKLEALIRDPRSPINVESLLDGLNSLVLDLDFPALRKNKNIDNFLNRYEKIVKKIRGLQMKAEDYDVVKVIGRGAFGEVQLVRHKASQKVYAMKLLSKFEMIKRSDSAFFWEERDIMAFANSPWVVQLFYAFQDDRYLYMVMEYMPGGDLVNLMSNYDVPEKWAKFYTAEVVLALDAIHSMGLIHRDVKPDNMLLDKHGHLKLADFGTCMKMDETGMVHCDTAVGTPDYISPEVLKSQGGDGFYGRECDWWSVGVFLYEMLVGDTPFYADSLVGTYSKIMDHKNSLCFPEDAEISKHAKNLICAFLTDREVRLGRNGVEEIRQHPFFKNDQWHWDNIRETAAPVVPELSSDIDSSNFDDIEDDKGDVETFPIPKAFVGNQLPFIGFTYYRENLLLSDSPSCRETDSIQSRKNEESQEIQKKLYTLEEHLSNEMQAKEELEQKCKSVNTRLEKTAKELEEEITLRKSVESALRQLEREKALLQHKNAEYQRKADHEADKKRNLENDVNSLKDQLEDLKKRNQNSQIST
- experimental protocol: ROCK inhibition assay, LANCE Ultra TR-FRET kinase assay (ROCK2)
- assay conditions: 4 μM ATP, 50 nM ULight-CREBtide substrate
pIC50: −log10 of the molar value.
Please provide measured pIC50 for the entries that follow.

## Task Give the observed pIC50 of CNC(=O)c1cccc(C(C)n2cc(CCO)c3cc(-c4cn[nH]c4C(F)(F)F)ccc3c2=O)c1 (stereo not shown) [Compound 549] for Recombinant ROCK2 (amino acids 5-554) (Homo sapiens, UniProt O75116).
## Result > 8.00

## Task Look up and report pIC50, with Recombinant ROCK2 (amino acids 5-554) (Homo sapiens, UniProt O75116) as system, for Cc1nocc1-c1ccc2c(=O)n(Cc3cccc(C(=O)NCC4CCN(C)CC4)c3)cnc2c1 [Compound 417]
## Result > 8.00

## Task Give reported pIC50 for CC(O)c1cn(Cc2cccc(C(=O)NCCN(C)C)c2)c(=O)c2ccc(-c3c[nH]nc3Cl)cc12 (stereo not shown) [Compound 542] (Recombinant ROCK2 (amino acids 5-554) (Homo sapiens, UniProt O75116))
## Result > 8.00

## Task Consider the compound CNC(=O)c1cccc(Cn2ccc3cc(-c4cn[nH]c4C(F)(F)F)cnc3c2=O)c1 [Compound 242] tested on Recombinant ROCK2 (amino acids 5-554) (Homo sapiens, UniProt O75116); state its pIC50.
## Result 6.30 to 7.00

## Task # return pIC50 of Cc1nocc1-c1ccc2c(=O)n(Cc3cc(F)cc(C(=O)Nc4nc5c(s4)CCN(C(C)C)C5)c3)ccc2c1 [Compound 159] (system: Recombinant ROCK2 (amino acids 5-554) (Homo sapiens, UniProt O75116))
## Result > 8.00

## Task Enter measured pIC50, system Recombinant ROCK2 (amino acids 5-554) (Homo sapiens, UniProt O75116), for the compound shown: [2H]C([2H])([2H])NC(=O)c1cccc([C@@H](C)n2cnc3cc(-c4cn[nH]c4C(F)F)ccc3c2=O)c1 [Compound 458]
## Result > 8.00

## Task Enter pIC50 (test system Recombinant ROCK2 (amino acids 5-554) (Homo sapiens, UniProt O75116)) for Cc1nocc1-c1ccc2c(=O)n(Cc3cc(F)cc(C(=O)N[C@H]4CC[C@H](O)CC4)c3)ccc2c1 [Compound 139]
## Result 6.30 to 7.00

## Task Print Recombinant ROCK2 (amino acids 5-554) (Homo sapiens, UniProt O75116) pIC50 for CNC(=O)c1cccc(Cn2cc(C(C)O)c3cc(-c4c[nH]nc4C(F)(F)F)ccc3c2=O)c1 (stereo not shown) [Compound 532] .
## Result > 8.00

## Task Would you please give the reported pIC50 of [2H]C([2H])([2H])NC(=O)c1cccc(Cn2cnc3cc(-c4cn[nH]c4Br)ccc3c2=O)c1 [Compound 511] with Recombinant ROCK2 (amino acids 5-554) (Homo sapiens, UniProt O75116)?
## Result > 8.00

## Task Please respond with reported pIC50 (system Recombinant ROCK2 (amino acids 5-554) (Homo sapiens, UniProt O75116)) for CC(O)c1cn(Cc2cccc(C(=O)NC3CCOCC3)c2)c(=O)c2ccc(-c3c[nH]nc3C(F)F)cc12 (stereo not shown) [Compound 536] .
## Result > 8.00

## Task Give the observed pIC50 of C[C@H](c1cccc(C(=O)NC2CC2)c1)n1cnc2cc(-c3cn[nH]c3Br)ccc2c1=O [Compound 515] for Recombinant ROCK2 (amino acids 5-554) (Homo sapiens, UniProt O75116).
## Result > 8.00

## Task Provide the reported pIC50 (system: Recombinant ROCK2 (amino acids 5-554) (Homo sapiens, UniProt O75116)) for O=C(NCC1CCOCC1)c1cc(F)cc(Cn2ccc3cc(-c4c[nH]nc4C(F)F)ncc3c2=O)c1 [Compound 276]
## Result > 8.00

## Task Name the recorded pIC50 of CC(=O)Nc1cccc(Cn2ccc3cc(-c4ccoc4C)ccc3c2=O)c1 [Compound 332] , assay system Recombinant ROCK2 (amino acids 5-554) (Homo sapiens, UniProt O75116).
## Result 6.30 to 7.00

## Task Provide the reported pIC50 (system: Recombinant ROCK2 (amino acids 5-554) (Homo sapiens, UniProt O75116)) for Nc1cc(-c2ccc3c(=O)n(Cc4cccc(C(=O)Nc5ccc6c(c5)CCNC6)c4)ccc3c2)ccn1 [Compound 188]
## Result > 8.00

## Task GET pIC50 | system: Recombinant ROCK2 (amino acids 5-554) (Homo sapiens, UniProt O75116) | item: CC(=O)Nc1cc(F)cc(Cn2ccc3cc(-c4ccnc(N)c4)ccc3c2=O)c1 [Compound 353]
## Result 6.30 to 7.00

## Task Answer with pIC50 of Nc1cc(-c2ccc3c(=O)n(Cc4cccc(C(=O)NCc5ccccc5)c4)ccc3c2)ccn1 [Compound 181] measured for Recombinant ROCK2 (amino acids 5-554) (Homo sapiens, UniProt O75116).
## Result 7.00 to 8.00

## Task Give pIC50 for this entry on Recombinant ROCK2 (amino acids 5-554) (Homo sapiens, UniProt O75116): CNC(=O)c1cccc(Cn2cc(C(C)O)c3cc(-c4c[nH]nc4C(F)F)ccc3c2=O)c1 (stereo not shown) [Compound 535]
## Result > 8.00

## Task Quote Recombinant ROCK2 (amino acids 5-554) (Homo sapiens, UniProt O75116) pIC50 for entry CNC(=O)c1cc([C@@H](C)n2cnc3cc(-c4cn[nH]c4C(F)(F)F)ccc3c2=O)ccc1F [Compound 456] .
## Result 7.00 to 8.00

## Task Using Recombinant ROCK2 (amino acids 5-554) (Homo sapiens, UniProt O75116) as the test system, report measured pIC50 of Cc1nocc1-c1ccc2c(=O)n(Cc3cccc(C(=O)NCC4CCN(C(C)C)CC4)c3)ccc2c1 [Compound 81] .
## Result 7.00 to 8.00

## Task State measured pIC50 of the compound CNC(=O)c1cc(F)cc(Cn2cnc3cc(-c4conc4C)ccc3c2=O)c1 [Compound 422] with Recombinant ROCK2 (amino acids 5-554) (Homo sapiens, UniProt O75116).
## Result > 8.00

## Task Provide the reported pIC50 (system: Recombinant ROCK2 (amino acids 5-554) (Homo sapiens, UniProt O75116)) for CN1CCC(CNC(=O)c2cc(F)cc(Cn3ccc4cc(-c5c[nH]nc5C(F)F)ccc4c3=O)c2)CC1 [Compound 62]
## Result > 8.00

## Task Answer briefly: pIC50 recorded on Recombinant ROCK2 (amino acids 5-554) (Homo sapiens, UniProt O75116) for C[C@H](c1cccc(C(=O)NCC2CCOCC2)c1)n1cnc2cc(-c3cn[nH]c3C(F)(F)F)ccc2c1=O [Compound 451]
## Result > 8.00

## Task Give the observed pIC50 of [2H]C([2H])([2H])NC(=O)c1cccc(Cn2ccc3cc(-c4ccnn4C)ccc3c2=O)c1 [Compound 321] for Recombinant ROCK2 (amino acids 5-554) (Homo sapiens, UniProt O75116).
## Result 7.00 to 8.00

## Task Fill: pIC50 (Recombinant ROCK2 (amino acids 5-554) (Homo sapiens, UniProt O75116)) for this compound CNC(=O)c1cccc([C@@H](C)n2cnc3cc(-c4cn[nH]c4Br)ccc3c2=O)c1 [Compound 509]
## Result > 8.00

## Task Recall the reported pIC50 of CNC(=O)c1cccc(Cn2cc(Cl)c3cc(-c4conc4C)ccc3c2=O)c1 [Compound 310] on Recombinant ROCK2 (amino acids 5-554) (Homo sapiens, UniProt O75116) and write it down.
## Result > 8.00

## Task Name the value of pIC50 reported for O=c1c2ccc(-c3ccncc3)cc2ccn1Cc1cccc(O)c1 [Compound 23] when tested on Recombinant ROCK2 (amino acids 5-554) (Homo sapiens, UniProt O75116).
## Result 6.30 to 7.00

## Task Enter recorded pIC50 with Recombinant ROCK2 (amino acids 5-554) (Homo sapiens, UniProt O75116) for CNC(=O)c1cccc(C(C)n2ccc3cc(-c4cn[nH]c4C(F)F)ccc3c2=O)c1 (stereo not shown) [Compound 287] here.
## Result > 8.00

## Task Find the measured pIC50 of Cc1nocc1-c1ccc2c(=O)n(Cc3cccc(C(=O)NC4CCNCC4)c3)ccc2c1 [Compound 85] with Recombinant ROCK2 (amino acids 5-554) (Homo sapiens, UniProt O75116) as test system.
## Result > 8.00

## Task Please report pIC50 with Recombinant ROCK2 (amino acids 5-554) (Homo sapiens, UniProt O75116) for item CN1CCC(CNC(=O)c2cc(F)cc(Cn3ccc4cc(-c5c[nH]nc5C(F)(F)F)ccc4c3=O)c2)CC1 [Compound 134] .
## Result > 8.00

## Task Give pIC50 for this entry on Recombinant ROCK2 (amino acids 5-554) (Homo sapiens, UniProt O75116): Cn1nccc1-c1ccc2c(=O)n(Cc3cccc(C(=O)NCC4CC(O)C4)c3)ccc2c1 (stereo not shown) [Compound 167]
## Result > 8.00

## Task Tell me its pIC50 on Recombinant ROCK2 (amino acids 5-554) (Homo sapiens, UniProt O75116): CNC(=O)c1cccc(C(C)n2ccc3cc(-c4ccnn4C)ccc3c2=O)c1 (stereo not shown) [Compound 322]
## Result 7.00 to 8.00

Measured values drawn from patent US12064426B2 for this set.
